- test system: Androgen receptor (Homo sapiens)
- experiment summary: Antagonist activity at Androgen receptor in human MDA-MB-453 cells measured by SEAP reporter gene assay
- Type: cell-based
Label true (1) when IC50 is strictly below 30 nM; at or above that, label false (0).

INSERT INTO results (smiles_notation, answer_label) VALUES
  ('N#Cc1ccc(N2C(=O)[C@H]3[C@@H]4C[C@@H](CN4C(=O)Oc4ccc(F)cc4)N3C2=O)cc1C(F)(F)F', 'false (0)'),
  ('CNC(=O)[C@]12C(=O)N(c3ccc(C#N)c(C(F)(F)F)c3)C(=O)[C@H]1[C@H]1C[C@H](F)[C@@H]2C1', 'false (0)'),
  ('CC(C)N1C[C@@]2(C)O[C@](C)(C1)[C@H]1C(=O)N(c3ccc(C#N)c(C(F)(F)F)c3)C(=O)[C@H]12', 'false (0)'),
  ('CCCCc1ccc(OC(=O)N2C[C@@H]3C[C@H]2[C@@H]2C(=O)N(c4ccc([N+](=O)[O-])c5ccccc45)C(=O)N32)cc1', 'false (0)'),
  ('CCS(=O)(=O)N[C@@H]1C[C@@]2(C)O[C@]1(C)[C@@H]1C(=O)N(c3ccc(C#N)c(C(F)(F)F)c3)C(=O)[C@@H]12', 'true (1)'),
  ('C[C@@]12O[C@@](C)(C[C@H]1O)[C@@H]1C(=O)N(c3ccc(C#N)c(I)c3)C(=O)[C@@H]12', 'true (1)');

====

- test system: Androgen receptor (Homo sapiens)
- experiment summary: Agonist activity at Androgen receptor in human 22Rv1 cells cotransfected with pARE-LUC measured by luciferase assay
- Type: cell-based
pIC50: −log10 of the molar value.
reported metric: pIC50

INSERT INTO results (smiles_notation, reported_metric, quantitative_readout) VALUES
  ('CCCN(CC(F)(F)F)c1cc(Br)c(C#N)s1', 'pIC50', 8.00);

====

- System: CWR22R
- experiment summary: Antiproliferative activity against human 22Rv1 cells expressing Androgen receptor H874Y mutant
- Format: functional, cell-based
reported metric: IC50 (nM)

INSERT INTO results (smiles_notation, quantitative_readout) VALUES
  ('COc1cccc(C(=O)Nc2ccc(Oc3ccc(O)cc3)c(C)c2)c1', 220);

====

- test system: Androgen receptor (Homo sapiens, UniProt P10275)
- Sequence (P10275 whole entry): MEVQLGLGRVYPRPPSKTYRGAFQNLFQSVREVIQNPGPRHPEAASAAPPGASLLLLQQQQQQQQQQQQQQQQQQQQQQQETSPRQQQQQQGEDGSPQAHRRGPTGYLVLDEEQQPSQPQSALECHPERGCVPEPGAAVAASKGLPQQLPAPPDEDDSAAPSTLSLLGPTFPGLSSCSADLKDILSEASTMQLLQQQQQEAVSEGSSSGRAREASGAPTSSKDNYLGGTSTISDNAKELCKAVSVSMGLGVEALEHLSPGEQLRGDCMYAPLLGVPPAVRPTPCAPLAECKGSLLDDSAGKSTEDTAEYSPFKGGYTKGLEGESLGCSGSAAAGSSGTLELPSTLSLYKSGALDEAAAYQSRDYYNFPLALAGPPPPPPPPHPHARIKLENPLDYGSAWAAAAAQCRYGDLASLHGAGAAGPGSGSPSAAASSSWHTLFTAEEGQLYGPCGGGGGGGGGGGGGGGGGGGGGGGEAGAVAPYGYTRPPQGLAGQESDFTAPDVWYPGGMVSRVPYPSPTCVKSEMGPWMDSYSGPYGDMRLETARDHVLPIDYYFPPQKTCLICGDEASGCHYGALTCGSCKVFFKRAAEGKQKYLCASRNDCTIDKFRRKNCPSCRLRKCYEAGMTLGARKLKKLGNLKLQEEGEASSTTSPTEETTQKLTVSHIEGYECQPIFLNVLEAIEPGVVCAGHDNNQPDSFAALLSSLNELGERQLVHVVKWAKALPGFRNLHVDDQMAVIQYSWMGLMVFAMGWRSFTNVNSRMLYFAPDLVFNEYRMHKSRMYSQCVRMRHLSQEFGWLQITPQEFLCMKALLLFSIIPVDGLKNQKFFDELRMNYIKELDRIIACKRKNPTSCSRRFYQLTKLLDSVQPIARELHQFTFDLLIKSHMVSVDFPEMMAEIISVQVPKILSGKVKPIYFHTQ
- experiment summary: Activation of human Androgen receptor N/C (N-terminal/C-terminal) interaction
reported metric: EC50 (nM)

INSERT INTO measurements (smiles_notation, quantitative_readout) VALUES
  ('N#Cc1ccc(-c2ccc(O)cc2F)[nH]1', 1210);

====

- test system: Androgen receptor (Homo sapiens)
- experiment summary: Antagonist activity at Androgen receptor (unknown origin) assessed as downregulation of AR
pIC50: −log10 of the molar value.
pIC50 overview
reported metric: pIC50

INSERT INTO assay_data (smiles_notation, test_system, result) VALUES
  ('CC(=O)N1CCN(CCOc2ccc(C3CCN(C4=Nn5c(nnc5C(F)(F)F)CC4)CC3)cc2)CC1', 'Androgen receptor (Homo sapiens)', '< 5.75'),
  ('N#Cc1ccc(CN2CCN(c3ccc4nnc(C(F)(F)F)n4n3)CC2)cc1', 'Androgen receptor (Homo sapiens)', '< 5.80');

====

pIC50 overview
- test system: UniProt:P10275
- experiment summary: Antagonist activity at Androgen receptor in human LNCaP cells measured by SEAP reporter gene assay
- Format: cell-based
pIC50: −log10 of the molar value.
reported metric: pIC50

INSERT INTO results (smiles_notation, reported_metric, quantitative_readout) VALUES
  ('CCS(=O)(=O)N[C@@H]1C[C@@]2(C)O[C@]1(C)[C@@H]1C(=O)N(c3ccc(C#N)c(C(F)(F)F)c3)C(=O)[C@@H]12', 'pIC50', 6.82),
  ('CC(C)N1C[C@@]2(C)O[C@](C)(C1)[C@H]1C(=O)N(c3ccc(C#N)c(C(F)(F)F)c3)C(=O)[C@H]12', 'pIC50', 6.90),
  ('CCCCc1ccc(OC(=O)N2C[C@@H]3C[C@H]2[C@@H]2C(=O)N(c4ccc([N+](=O)[O-])c5ccccc45)C(=O)N32)cc1', 'pIC50', 5.32),
  ('N#Cc1ccc(N2C(=O)[C@H]3[C@@H]4C[C@@H](CN4C(=O)Oc4ccc(F)cc4)N3C2=O)cc1C(F)(F)F', 'pIC50', 5.41);
